The reported measurements were obtained from PubChem BioAssay (NCI).

# Tested on: NCI/ADR-RES ovarian
# Procedure Summary: NCI-60 one-dose screen, 48 h (100 = growth as untreated, 0 = no growth, -100 = all killed)
# Assay Context: 10 µM unless noted
About 83,000 compounds went through this panel and 20% of them were active in at least one assay; those are over-represented in the sample as a whole. Active and inactive are the calls of the source. How the source made its calls: active means growth percent below 10; inactive means the rest.
Observation Type: growth

[
  {
    "Compound Smiles": "CC/C=C\\C[C@H](O)C/C=C1/C(=O)C(Cl)=C[C@@H]1C/C=C\\CCCC(=O)O",
    "growth": "57.1% (inactive)"
  }
]

List growth for every entry below, keeping the order given.
1. C=CC(=O)N[C@H](/C=C/C(=O)OCC)Cc1ccc(-c2cc(Cl)cc(Cl)c2)cc1
2. CN1CCN(c2ccc3cc(-c4nc5ccccc5[nH]4)c(=O)oc3c2)CC1

-- reply
1. 81.8% (inactive)
2. 86.9% (inactive)

List growth for every entry below, keeping the order given.
1. Cn1c(=O)c2c(nc3n2CCN(CCc2ccc(OCCN4CCOCC4)cc2)C3)n(C)c1=O
2. Cc1oc2nc[nH]c(=O)c2c1C(=O)/C=C/c1ccc(Cl)cc1Cl
3. CCNC(=O)CCCCC(=O)c1c(C)[nH]c(/C=C2\N=C(c3ccc[nH]3)C=C2OC)c1C
4. COc1cccc2cc(-c3cc4ccccc4[nH]3)c(=NC(=O)c3ccc(Cl)cc3)oc12
5. Nc1c(C(=O)Nc2ccccc2)sc2nc3c(cc12)CCC3
6. CCN1C(=O)N[C@H]2[C@@H]3NC(=O)c4ccc(Cl)n4[C@@H]3C[C@]21O
7. Cc1sc2nc(CSc3nnc(-c4ccco4)o3)[nH]c(=O)c2c1C

-- reply
112% (inactive)
43% (inactive)
15.4% (inactive)
53% (inactive)
66.6% (inactive)
76.4% (inactive)
112% (inactive)

====

# Tested on: U251 CNS
# Procedure Summary: NCI-60 one-dose screen, 48 h
# Assay Context: 10 µM unless noted
Compounds without any hit were thinned out: in the full panel of roughly 83,000, 20% have a hit. Activity calls are given as the source filed them. The calls were made as follows: active = growth percent below 10; inactive = the rest.
# valid calls are 1 (yes) for active, 0 (no) for inactive; nothing else

Look over these answered cases.
[
  {
    "Compound": "N#CC1=C(N)n2nc(-c3ccncc3)nc2NC1c1cccc2ccccc12 (stereo not given)",
    "Group Label": "0 (no)"
  },
  {
    "Compound": "CC(=O)Nc1ccc(S(=O)(=O)N2C(=O)CCC2C(=O)Nc2ccc(Br)cc2)cc1 (stereo not given)",
    "Group Label": "0 (no)"
  },
  {
    "Compound": "O=C1Nc2cc(Cl)ccc2Oc2cc(Oc3ccccc3)ccc21",
    "Group Label": "0 (no)"
  },
  {
    "Compound": "CC(C)C[C@H](NC(=O)[C@@H](Cc1ccccc1)n1ccc(Nc2ccccc2)cc1=O)B(O)O",
    "Group Label": "1 (yes)"
  },
  {
    "Compound": "CC(C)N(Cc1ccc(CN(C(=O)CCl)C(C)C)cc1)C(=O)CCl",
    "Group Label": "1 (yes)"
  }
]

-- ask // param item: O=C1NC(Cc2c[nH]c3ccccc23)C(=O)N1Cc1ccc(Cl)cc1 (stereo not given) ; yields the recorded call
-- reply 0 (no)

-- ask // param item: Cc1ccc2c(c1)C(=O)C(c1c(-c3[nH]c(=O)c4ccc(C)cc4c3O)c(O)c3ccccc3c1O)=NC2=O ; yields the recorded call
-- reply 1 (yes)

-- ask // param item: CCCCCCOc1ccc(C2(Cl)c3ccccc3N(C)c3ccccc32)cc1 ; yields the recorded call
-- reply 1 (yes)

-- ask // param item: CCOP(=O)(CCN1CCN(CCCCCOc2cc3c(cc2OC)C(=O)N2CCC[C@H]2C=N3)CC1)OCC ; yields the recorded call
-- reply 0 (no)

-- ask // param item: NCCSC(c1ccccc1)(c1ccccc1)c1ccccc1 ; yields the recorded call
-- reply 0 (no)

-- ask // param item: CCN(C(=O)c1cc2ccccc2[nH]1)[C@H]1CCC[C@@H](NCc2ccc(OC)cc2)C1 ; yields the recorded call
-- reply 0 (no)

-- ask // param item: O=S(=O)(NCCCNc1nccc(-c2c(-c3ccc(F)c(O)c3)nc3sccn23)n1)c1ccc(Cl)cc1 ; yields the recorded call
-- reply 0 (no)

-- ask // param item: COc1cc(-c2n[nH]nc2-c2ccc3c(c2)OCCO3)cc(OC)c1OC ; yields the recorded call
-- reply 1 (yes)

-- ask // param item: COc1ccc(-c2nc(-c3ccccc3)c(-c3ccccc3)n2C2CC2)cc1OC1CCCCC1 ; yields the recorded call
-- reply 0 (no)

-- ask // param item: O=C(/C=C/CN1CCOCC1)Nc1cc2c(Nc3ccc(F)c(Cl)c3F)ncnc2cc1OCCOC(F)F ; yields the recorded call
-- reply 0 (no)

-- ask // param item: Cc1ccnc2nc(C(=O)OCC(=O)Nc3ccc(-c4ccccc4)cc3)nn12 ; yields the recorded call
-- reply 0 (no)

-- ask // param item: OC1CC2c3ccccc3C1c1ccccc12 (stereo not given) ; yields the recorded call
-- reply 0 (no)

-- ask // param item: c1cncc(CNc2ccccc2-c2nnc(Nc3ccc4c(c3)OCCO4)o2)c1 ; yields the recorded call
-- reply 0 (no)

-- ask // param item: CCN1C(=O)N(CC)C2C1NN=c1s/c(=C3\C(=O)N(C4CCCC4)c4ccccc43)c(=O)n12 (stereo not given) ; yields the recorded call
-- reply 0 (no)

-- ask // param item: COc1ccccc1OCC(=O)Nc1sc2c(c1C(N)=O)CCC2 ; yields the recorded call
-- reply 0 (no)
